experiment: Plasma concentration in Sprague-Dawley rat at 5 mg/kg after 8 hrs; assay type: ADME, organism-based; set-up: dose 5 mg/kg

{"ITEM_SMILES": "CCc1nc(N)nc(N)c1-c1ccc(NCc2ccc(Cl)cc2)cc1", "concentration at 8 h (ng/mL)": 110}
{"ITEM_SMILES": "Nc1nc(N)c(-c2ccc(NCc3ccc(Cl)cc3)cc2)c(COCc2ccccc2)n1", "concentration at 8 h (ng/mL)": 30}

----------
target: Growth hormone secretagogue receptor type 1 (Homo sapiens); experiment: Antagonist activity at human GHS receptor by inhibition of ghrelin-induced intracellular calcium flux in CHOK cells; type: functional, cell-based
Sequence (Q92847 whole entry): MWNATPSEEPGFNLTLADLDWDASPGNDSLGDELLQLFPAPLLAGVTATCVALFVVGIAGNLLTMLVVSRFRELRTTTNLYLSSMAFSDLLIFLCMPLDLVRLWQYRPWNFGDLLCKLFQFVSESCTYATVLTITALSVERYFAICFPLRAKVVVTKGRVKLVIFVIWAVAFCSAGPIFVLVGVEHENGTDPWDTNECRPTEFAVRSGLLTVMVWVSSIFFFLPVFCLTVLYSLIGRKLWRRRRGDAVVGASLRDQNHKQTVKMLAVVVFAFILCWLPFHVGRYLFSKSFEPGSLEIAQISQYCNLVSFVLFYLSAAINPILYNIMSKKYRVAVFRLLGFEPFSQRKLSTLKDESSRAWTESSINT
pIC50: −log10 of the molar value.
Each entry gets rule not met if its pIC50 stays under 7, and rule met if its pIC50 is 7 or above.

{"ITEM_SMILES": "N#Cc1ccc(CNc2ccc(-c3c(N)nc(N)nc3COCc3ccccc3)cc2)cc1", "STUDY_TARGET": "Growth hormone secretagogue receptor type 1 (Homo sapiens)", "CATEGORY": "rule met"}
{"ITEM_SMILES": "Nc1nc(N)c(-c2ccc(NCc3csc(Cl)c3)cc2)c(COCc2ccccc2)n1", "STUDY_TARGET": "Growth hormone secretagogue receptor type 1 (Homo sapiens)", "CATEGORY": "rule not met"}
{"ITEM_SMILES": "CCc1nc(N)nc(N)c1-c1ccc(NCc2ccc(S(C)(=O)=O)cc2)c(Br)c1", "STUDY_TARGET": "Growth hormone secretagogue receptor type 1 (Homo sapiens)", "CATEGORY": "rule met"}

----------
experiment: Inhibition of adrenergic receptor

{"ITEM_SMILES": "Nc1nc(N)c(-c2ccc(NCc3ccc(Cl)cc3)cc2)c(COCc2ccccc2)n1", "IC50": "> 33 µM"}

----------
assay: AUC in Sprague-Dawley rat at 5 mg/kg, iv; type: ADME, organism-based, Plasma; set-up: dose 5 mg/kg, route intravenous; conditions: Sprague-Dawley, plasma
MEASUREMENT_KIND: AUC

{"ITEM_SMILES": "CCc1nc(N)nc(N)c1-c1ccc(NCc2ccc(S(C)(=O)=O)cc2)c(Cl)c1", "RESULT": "2700 ng·h/mL"}
{"ITEM_SMILES": "CCc1nc(N)nc(N)c1-c1ccc(N(C)Cc2ccc(S(C)(=O)=O)cc2)cc1", "RESULT": "2700 ng·h/mL"}
{"ITEM_SMILES": "CCc1nc(N)nc(N)c1-c1ccc(NCc2ccc(S(C)(=O)=O)cc2)cc1", "RESULT": "2800 ng·h/mL"}
{"ITEM_SMILES": "CCc1nc(N)nc(N)c1-c1ccc(NCc2ccc(C(C)=O)cc2)cc1", "RESULT": "680 ng·h/mL"}
{"ITEM_SMILES": "CCc1nc(N)nc(N)c1-c1ccc(NCc2ccc([N+](=O)[O-])cc2)cc1", "RESULT": "1600 ng·h/mL"}
{"ITEM_SMILES": "CCc1nc(N)nc(N)c1-c1ccc(NCc2ccc(Cl)cc2)cc1", "RESULT": "2200 ng·h/mL"}

----------
test: Oral bioavailability in Sprague-Dawley rat at 5 mg/kg; format: ADME, organism-based; details: in vivo
Parameter: bioavailability. Scope: all listed entries.

{"ITEM_SMILES": "CCc1nc(N)nc(N)c1-c1ccc(NCc2ccc([N+](=O)[O-])cc2)cc1", "bioavailability (%)": 68}
{"ITEM_SMILES": "CCc1nc(N)nc(N)c1-c1ccc(N(C)Cc2ccc(S(C)(=O)=O)cc2)cc1", "bioavailability (%)": 53}
{"ITEM_SMILES": "CCc1nc(N)nc(N)c1-c1ccc(NCc2ccc(Cl)cc2)cc1", "bioavailability (%)": 76}
{"ITEM_SMILES": "Nc1nc(N)c(-c2ccc(NCc3ccc(Cl)cc3)cc2)c(COCc2ccccc2)n1", "bioavailability (%)": 5.5}
{"ITEM_SMILES": "CCc1nc(N)nc(N)c1-c1ccc(NCc2ccc(S(C)(=O)=O)cc2)c(Cl)c1", "bioavailability (%)": 78}
{"ITEM_SMILES": "CCc1nc(N)nc(N)c1-c1ccc(NCc2ccc(S(C)(=O)=O)cc2)cc1", "bioavailability (%)": 52}
{"ITEM_SMILES": "CCc1nc(N)nc(N)c1-c1ccc(NCc2ccc(C(C)=O)cc2)cc1", "bioavailability (%)": 51}

----------
Parameter: pIC50. Scope: all listed entries.
biological target: Growth hormone secretagogue receptor type 1 (Homo sapiens); test: Displacement of [125I]ghrelin from human GHS receptor expressed in CHOK cells; assay type: cell-based
pIC50: −log10 of the molar value.

{"ITEM_SMILES": "CCc1nc(N)nc(N)c1-c1ccc(NCc2ccc(S(C)(=O)=O)cc2)c(Br)c1", "pIC50": 8.24}
{"ITEM_SMILES": "CCc1nc(N)nc(N)c1-c1ccc(CNc2ccc([N+](=O)[O-])cc2)cc1", "pIC50": 8.04}
{"ITEM_SMILES": "N#Cc1ccc(COc2ccc(-c3c(N)nc(N)nc3COCc3ccccc3)cc2)cc1", "pIC50": 7.08}
{"ITEM_SMILES": "CCc1nc(N)nc(N)c1-c1ccc(NCc2ccc(C#N)cc2)cc1", "pIC50": 6.80}
{"ITEM_SMILES": "CC(C)(C)CNc1ccc(-c2c(N)nc(N)nc2COCc2ccccc2)cc1", "pIC50": 7.17}
{"ITEM_SMILES": "CCc1nc(N)nc(N)c1-c1ccc(CNc2ccc(S(C)(=O)=O)cc2)cc1", "pIC50": 8.01}
{"ITEM_SMILES": "COc1ccc(CNc2ccc(-c3c(N)nc(N)nc3COCc3ccccc3)cc2)cc1", "pIC50": 8.11}
{"ITEM_SMILES": "Nc1nc(N)c(-c2ccc(NCc3cnc4ccccc4c3)cc2)c(COCc2ccccc2)n1", "pIC50": 6.89}
{"ITEM_SMILES": "CCc1nc(N)nc(N)c1-c1ccc(NCc2ccc(S(C)(=O)=O)cc2)c(Cl)c1", "pIC50": 8.38}
{"ITEM_SMILES": "CCc1nc(N)nc(N)c1-c1ccc(NCc2cc(F)c(S(C)(=O)=O)c(F)c2)cc1", "pIC50": 8.62}

----------
experiment: Half life in Sprague-Dawley rat at 5 mg/kg; format: ADME, organism-based; set-up: dose 5 mg/kg; conditions: in vivo
Just a reminder that ties go to class 0: only half-life strictly below 5 h counts as class 1.

{"ITEM_SMILES": "CCc1nc(N)nc(N)c1-c1ccc(NCc2ccc(S(C)(=O)=O)cc2)cc1", "CATEGORY": "class 0"}
{"ITEM_SMILES": "CCc1nc(N)nc(N)c1-c1ccc(N(C)Cc2ccc(S(C)(=O)=O)cc2)cc1", "CATEGORY": "class 1"}
{"ITEM_SMILES": "CCc1nc(N)nc(N)c1-c1ccc(NCc2ccc(C(C)=O)cc2)cc1", "CATEGORY": "class 1"}
{"ITEM_SMILES": "CCc1nc(N)nc(N)c1-c1ccc(NCc2ccc(Cl)cc2)cc1", "CATEGORY": "class 0"}
{"ITEM_SMILES": "CCc1nc(N)nc(N)c1-c1ccc(NCc2ccc(S(C)(=O)=O)cc2)c(Cl)c1", "CATEGORY": "class 0"}
{"ITEM_SMILES": "CCc1nc(N)nc(N)c1-c1ccc(NCc2ccc([N+](=O)[O-])cc2)cc1", "CATEGORY": "class 0"}

----------
assay: Plasma concentration in Sprague-Dawley rat at 30 mg/kg, ip after 8 hrs; assay type: ADME, organism-based; parameters: dose 30 mg/kg, route intraperitoneal

{"ITEM_SMILES": "Nc1nc(N)c(-c2ccc(NCc3ccc(Cl)cc3)cc2)c(COCc2ccccc2)n1", "concentration at 8 h, ng/mL": 190}
{"ITEM_SMILES": "Nc1nc(N)c(-c2ccc(NCc3ccc(Cl)cc3)cc2)c(CCc2ccccc2)n1", "concentration at 8 h, ng/mL": 90}

----------
experiment: Plasma clearance in Sprague-Dawley rat at 5 mg/kg, iv; type: ADME, organism-based; set-up: dose 5 mg/kg, route intravenous
Parameter: clearance. Scope: all listed entries.

{"ITEM_SMILES": "CCc1nc(N)nc(N)c1-c1ccc(NCc2ccc([N+](=O)[O-])cc2)cc1", "clearance (mL/min/kg)": 43.3}
{"ITEM_SMILES": "CCc1nc(N)nc(N)c1-c1ccc(NCc2ccc(Cl)cc2)cc1", "clearance (mL/min/kg)": 30}
{"ITEM_SMILES": "CCc1nc(N)nc(N)c1-c1ccc(NCc2ccc(C(C)=O)cc2)cc1", "clearance (mL/min/kg)": 61.7}
{"ITEM_SMILES": "CCc1nc(N)nc(N)c1-c1ccc(N(C)Cc2ccc(S(C)(=O)=O)cc2)cc1", "clearance (mL/min/kg)": 16.5}
{"ITEM_SMILES": "CCc1nc(N)nc(N)c1-c1ccc(NCc2ccc(S(C)(=O)=O)cc2)c(Cl)c1", "clearance (mL/min/kg)": 26.7}
{"ITEM_SMILES": "CCc1nc(N)nc(N)c1-c1ccc(NCc2ccc(S(C)(=O)=O)cc2)cc1", "clearance (mL/min/kg)": 15.7}
